# Test system: Mycobacterium smegmatis IFO 13167
# assay_protocol: MIC, agar streak method, Mycobacterium smegmatis IFO 13167
# Assay type: cell-based
# applied_conditions: Mycolicibacterium smegmatis, IFO13167, Heart infusion agar
Listed here are compounds together with their documented MIC.
Express the result in µg/mL but write the number alone.

// worked examples, MIC included
compound | measured
COC(=O)C1c2cc3c(c(O)c2C(OC2CC(N(C)C)C(OC4CC5OC6CC(=O)C(C)OC6OC5C(C)O4)C(C)O2)CC1(O)CC(C)=O)C(=O)c1c(O)cccc1C3=O (stereo not shown) | 6.25
COC(=O)C1c2cc3c(c(O)c2C(OC2CC(N(C)C)C(OC4CC5OC6CC(=O)C(C)OC6OC5C(C)O4)C(C)O2)CC1(C)O)C(=O)c1c(O)cccc1C3=O (stereo not shown) | 3.12
COC(=O)C1c2cc3c(c(O)c2C(OC2CC(N(C)C)C(OC4CC(O)C(OC5CCC(=O)C(C)O5)C(C)O4)C(C)O2)CC1(O)CC(C)=O)C(=O)c1c(O)cccc1C3=O (stereo not shown) | 25

Req: Supply recorded MIC for COC(=O)C1c2cc3c(c(O)c2C(OC2CC(N(C)C)C(OC4CC(O)C(OC5CCC(=O)C(C)O5)C(C)O4)C(C)O2)CC1(C)O)C(=O)c1c(O)cccc1C3=O (stereo not shown) here.
Resp: 6.25
